The values you see were collected from ChEMBL document CHEMBL1159094.

- Experimental details: Chemical stability in 0.01 mM phosphate buffered saline assessed as purity of parent compound after 2 hrs by HPLC analysis
- Format: physicochemical
- Setup conditions: read-out: Activity

[
  {
    "Smiles record": "CCN(CC)C(=O)c1nc2ccccc2c(-c2ccccc2)c1CI",
    "remaining at 2 h": "96%"
  }
]

----------
- Experimental details: Chemical stability in 0.01 mM phosphate buffered saline assessed as purity of parent compound after 24 hrs by HPLC analysis
- Type: physicochemical
- Setup conditions: read-out: Activity
Measured parameter: remaining at 24 h (%)

[
  {
    "Smiles record": "CCN(CC)C(=O)c1nc2ccccc2c(-c2ccccc2)c1CI",
    "Unit name": "%",
    "Observed measurement": 79
  }
]
